method_notes: Pharmacokinetics in mouse
Type: in vivo
test_conditions: brain, 30 mg/kg, 30 mpk po (pa [sic]), 1 h, read-out: brain:plasma @ 1 h

[
  {
    "molecule": "COc1ccccc1C1CCN(c2nc(C3(F)CC3)nc3ccc(N(C)CCO)cc23)CC1 [SBI-553]",
    "Kp at 1 h": 54
  }
]

====

Recorded AUC by entry
method_notes: Pharmacokinetics in monkey (IV and PO)
Format: in vivo
test_conditions: monkey, plasma, iv, 5 mg/kg, Monkey; IV 5 mg/kg; read-out: AUCo-inf

[
  {
    "smiles_notation": "COc1ccccc1C1CCN(c2nc(C3(F)CC3)nc3ccc(N(C)CCO)cc23)CC1",
    "AUC": "4340 ng·h/mL"
  },
  {
    "smiles_notation": "COc1ccccc1C1CCN(c2nc(C3(C)CC3)nc3ccc(N(C)CCO)cc23)CC1",
    "AUC": "4340 ng·h/mL"
  }
]

====

Recorded MRT last by entry
method_notes: Pharmacokinetics in monkey (IV and PO)
Format: in vivo
test_conditions: plasma; Monkey; PO 20 mg/kg; read-out: MRT0-last

[
  {
    "compound": "COc1ccccc1C1CCN(c2nc(C3(C)CC3)nc3ccc(N(C)CCO)cc23)CC1 [SBI-810]",
    "MRT last (h)": 8
  },
  {
    "compound": "COc1ccccc1C1CCN(c2nc(C3(F)CC3)nc3ccc(N(C)CCO)cc23)CC1 [SBI-553]",
    "MRT last (h)": 11.9
  }
]

====

method_notes: Pharmacokinetics in rat
Type: in vivo
test_conditions: plasma, 30 mg/kg, 5 mpk iv and 30 mpk po

[
  {
    "compound": "COc1ccccc1C1CCN(c2nc(C3(F)CC3)nc3ccc(N(C)CCO)cc23)CC1 [SBI-553]",
    "unit_info": "%",
    "bioavailability": 48
  }
]

====

method_notes: Pharmacokinetics in monkey (IV and PO)
Assay type: in vivo
test_conditions: plasma; Monkey; IV 5 mg/kg; read-out: Vdss
quantity: Vd (L/kg)

[
  {
    "compound": "COc1ccccc1C1CCN(c2nc(C3(C)CC3)nc3ccc(N(C)CCO)cc23)CC1 [SBI-810]",
    "experimental_value": 5
  },
  {
    "compound": "COc1ccccc1C1CCN(c2nc(C3(F)CC3)nc3ccc(N(C)CCO)cc23)CC1 [SBI-553]",
    "experimental_value": 3.1
  }
]

====

method_notes: Pharmacokinetics in rat
Type: in vivo
test_conditions: brain, 30 mg/kg, 30 mpk po (pa [sic]), 1 h, read-out: brain:plasma @ 1 h

[
  {
    "compound": "COc1ccccc1C1CCN(c2nc(C3(F)CC3)nc3ccc(N(C)CCO)cc23)CC1 [SBI-553]",
    "Kp at 1 h": 0.98
  }
]

====

Recorded half-life by entry
method_notes: Pharmacokinetics in monkey (IV and PO)
Format: in vivo
test_conditions: plasma; Monkey; PO 20 mg/kg
quantity: half-life (h)

[
  {
    "smiles_notation": "COc1ccccc1C1CCN(c2nc(C3(F)CC3)nc3ccc(N(C)CCO)cc23)CC1",
    "experimental_value": 8
  },
  {
    "smiles_notation": "COc1ccccc1C1CCN(c2nc(C3(C)CC3)nc3ccc(N(C)CCO)cc23)CC1",
    "experimental_value": 4
  }
]
